These measurements were taken from ChEMBL document CHEMBL1201862.

# System: SW-620
# measurement_notes: NCI tumour cell line growth inhibition, 48 h
Activity calls are given as the source filed them. Rule as the data show it: active = GI50 up to about 1.1 µM and inactive = higher.
Parameter call: string, one of 1 (yes) for active, 0 (no) for inactive

molecule | label_value
COc1ccc(OC)c2c(C(=O)O)c(C(C)c3ccccc3)ccc12 (configuration not stated) | 0 (no)
O=C1C=CC(=O)c2c(Cl)ccc(O)c21 | 0 (no)
COc1ccc(/C=C(/C#N)C(N)=O)cc1OC | 0 (no)

Please share the test call associated with CCC(CC)C(=O)OC[n+]1cccc(-c2c(COC(=O)NC(C)C)c(COC(=O)NC(C)C)c3n2CCC3)c1 .
0 (no)

State the result this test recorded for COc1cc(C2c3cc4c(cc3OC(NN)C2C)OCO4)cc(OC)c1OC (configuration not stated) .
1 (yes)

Called result for O=C(O)/C(Cl)=C(\Cl)C(=O)Nc1ccc(Cl)c(Cl)c1Cl
0 (no)

I would be grateful if you could indicate the recorded call for Cc1c(C)c(C)c(-n2c(=O)n(C)c(=O)n2-c2cc(C(C)(C)C)cc(C(C)(C)C)c2O)c(C)c1C .
0 (no)
